# TEST_METHOD_NOTES: Retention of peptides P1-1 to P1-5 on a polypropylene sheet after successive washes
# Assay type: physicochemical
# EXPERIMENTAL_CONDITIONS: after third wash: water, 30 minutes
Ends that are not written are not given here.
Can you tell me Average fluorescence, test array for the items I'm about to list?

Inquiry: Look up Average fluorescence, test array: TAMRA-F-G-F-G-F-G-F-G-F-S-F-A-F-D-F-G-F ({TAMRA}-FGFGFGFGFSFAFDFGF) [Peptide P1-4]
Reply text: 135,681,173

Inquiry: Now this one: TAMRA-F-G-F-G-F-G-F-S-F-A-F-D-F-G-F ({TAMRA}-FGFGFGFSFAFDFGF) [Peptide P1-3]
Reply text: 125,717,642

Inquiry: Now this one: TAMRA-F-G-F-G-F-G-F-G-F-G-F-S-F-A-F-D-F-G-F ({TAMRA}-FGFGFGFGFGFSFAFDFGF) [Peptide P1-5]
Reply text: 147,812,043

Inquiry: Now this one: TAMRA-F-G-F-S-F-A-F-D-F-G-F ({TAMRA}-FGFSFAFDFGF) [Peptide P1-1]
Reply text: 124,941,941

Inquiry: Now this one: TAMRA-F-G-F-G-F-S-F-A-F-D-F-G-F ({TAMRA}-FGFGFSFAFDFGF) [Peptide P1-2]
Reply text: 126,193,156

* * *

# TEST_METHOD_NOTES: Retention of peptides on Greiner polypropylene V-bottom wells
# Assay type: physicochemical
# EXPERIMENTAL_CONDITIONS: 400V scan, unwashed
Ends that are not written are not given here.
MEASUREMENT_TYPE: Untreated fluorescence

Inquiry: Look up Untreated fluorescence: N-TAMRA-Asp-Ser- Ala-Ser-Ser-Ser- Lys-C ({TAMRA}-DSASSSK) [Peptide 2DOS-7]
Reply text: 3,751,280

Inquiry: Now this one: N-TAMRA-Phe-Asp- Phe-Ala-Phe-Ser- Phe-Lys-Phe-C ({TAMRA}-FDFAFSFKF) [Peptide 2DOS-2]
Reply text: 3,512,023

Inquiry: Now this one: N-TAMRA-Asp-Phe- Asp-Phe-Asp-Phe- Asp-C ({TAMRA}-DFDFDFD) [Peptide 2DOS-14]
Reply text: 3,612,113

Inquiry: Now this one: N-TAMPA-Asp-Asp- Asp-Ala-Asp-Ser- Asp-Lys-Asp-C ({TAMRA}-DDDADSDKD) [Peptide 2DOS-4]
Reply text: 3,937,734

Inquiry: Now this one: N-TAMRA-Asp-Ser- Asp-Ser-Asp-Ser- Asp-C ({TAMRA}-DSDSDSD) [Peptide 2DOS-15]
Reply text: 4,771,265

Inquiry: Now this one: N-TAMRA-Phe-Asp- Phe-Asp-Phe-Asp- Phe-Asp-Phe-C ({TAMRA}-FDFDFDFDF) [Peptide 2DOS-10]
Reply text: 3,043,118

Inquiry: Now this one: N-TAMRA-Ser-Asp- Ser-Asp-Ser-Asp- Ser-Asp-Ser-C ({TAMRA}-SDSDSDSDS) [Peptide 2DOS-11]
Reply text: 3,510,896

* * *

# TEST_METHOD_NOTES: Retention of peptides in flat-bottomed polypropylene wells
# Type: physicochemical
# EXPERIMENTAL_CONDITIONS: flat-bottom wells; 500V scan; unwashed
Ends that are not written are not given here.
MEASUREMENT_TYPE: Untreated fluorescence

Inquiry: Look up Untreated fluorescence: N-TAMPA-Asp-Asp- Asp-Asp-Asp-Asp- Asp-C ({TAMRA}-DDDDDDD) [Peptide 2DOS-16]
Reply text: 15,555,465

Inquiry: Now this one: N-TAMRA-Asp-Phe- Ala-Phe-Ser-Phe- Lys-C ({TAMRA}-DFAFSFK) [Peptide 2DOS-6]
Reply text: 14,539,109

Inquiry: Now this one: N-TAMRA-Asp-Ser- Ala-Ser-Ser-Ser- Lys-C ({TAMRA}-DSASSSK) [Peptide 2DOS-7]
Reply text: 10,189,473

Inquiry: Now this one: N-TAMRA-Phe-Asp- Phe-Asp-Phe-Asp- Phe-Asp-Phe-C ({TAMRA}-FDFDFDFDF) [Peptide 2DOS-10]
Reply text: 13,661,609

Inquiry: Now this one: N-TAMRA-Asp-Phe- Asp-Phe-Asp-Phe- Asp-C ({TAMRA}-DFDFDFD) [Peptide 2DOS-14]
Reply text: 15,090,582

Inquiry: Now this one: N-TAMRA-Asp-Ser- Asp-Ser-Asp-Ser- Asp-C ({TAMRA}-DSDSDSD) [Peptide 2DOS-15]
Reply text: 15,290,885

Inquiry: Now this one: N-TAMPA-Asp-Asp- Asp-Asp-Asp-Asp- Asp-Asp-Asp-C ({TAMRA}-DDDDDDDDD) [Peptide 2DOS-12]
Reply text: 12,982,170

Inquiry: Now this one: N-TAMRA-Ser-Asp- Ser-Asp-Ser-Asp- Ser-Asp-Ser-C ({TAMRA}-SDSDSDSDS) [Peptide 2DOS-11]
Reply text: 13,960,552

Inquiry: Now this one: N-TAMRA-Phe-Asp- Phe-Ala-Phe-Ser- Phe-Lys-Phe-C ({TAMRA}-FDFAFSFKF) [Peptide 2DOS-2]
Reply text: 15,820,680

Inquiry: Now this one: N-TAMPA-Asp-Asp- Asp-Ala-Asp-Ser- Asp-Lys-Asp-C ({TAMRA}-DDDADSDKD) [Peptide 2DOS-4]
Reply text: 11,885,905

Inquiry: Now this one: N-TAMPA-Asp-Asp- Ala-Asp-Ser-Asp- Lys-C ({TAMRA}-DDADSDK) [Peptide 2DOS-8]
Reply text: 17,576,485

* * *

# TEST_METHOD_NOTES: Retention of peptides on Greiner polypropylene V-bottom wells
# Format: physicochemical
# EXPERIMENTAL_CONDITIONS: 400V scan
Ends that are not written are not given here.
Can you tell me Percent retention for the items I'm about to list?
// return numeric value only (unit: %, not printed)

Inquiry: Look up Percent retention: N-TAMPA-Asp-Asp- Asp-Ala-Asp-Ser- Asp-Lys-Asp-C ({TAMRA}-DDDADSDKD) [Peptide 2DOS-4]
Reply text: 1

Inquiry: Now this one: N-TAMRA-Phe-Asp- Phe-Asp-Phe-Asp- Phe-Asp-Phe-C ({TAMRA}-FDFDFDFDF) [Peptide 2DOS-10]
Reply text: 22

Inquiry: Now this one: N-TAMPA-Asp-Asp- Asp-Asp-Asp-Asp- Asp-Asp-Asp-C ({TAMRA}-DDDDDDDDD) [Peptide 2DOS-12]
Reply text: 1

* * *

# TEST_METHOD_NOTES: Retention of peptides on Greiner polypropylene V-bottom wells
# Format: physicochemical
# EXPERIMENTAL_CONDITIONS: 400V scan, washed 15 minutes in 1 M NaCl in 10 mM tris-HCl (pH 8.0)
Ends that are not written are not given here.
Can you tell me Retained fluorescence for the items I'm about to list?

Inquiry: Look up Retained fluorescence: N-TAMPA-Asp-Asp- Asp-Ala-Asp-Ser- Asp-Lys-Asp-C ({TAMRA}-DDDADSDKD) [Peptide 2DOS-4]
Reply text: 50,669

Inquiry: Now this one: N-TAMRA-Asp-Ser- Ala-Ser-Ser-Ser- Lys-C ({TAMRA}-DSASSSK) [Peptide 2DOS-7]
Reply text: 205,430

Inquiry: Now this one: N-TAMRA-Ser-Asp- Ser-Asp-Ser-Asp- Ser-Asp-Ser-C ({TAMRA}-SDSDSDSDS) [Peptide 2DOS-11]
Reply text: 86,818

Inquiry: Now this one: N-TAMPA-Asp-Asp- Asp-Asp-Asp-Asp- Asp-Asp-Asp-C ({TAMRA}-DDDDDDDDD) [Peptide 2DOS-12]
Reply text: 20,175

Inquiry: Now this one: N-TAMRA-Asp-Phe- Asp-Phe-Asp-Phe- Asp-C ({TAMRA}-DFDFDFD) [Peptide 2DOS-14]
Reply text: 461,468

Inquiry: Now this one: N-TAMRA-Phe-Asp- Phe-Asp-Phe-Asp- Phe-Asp-Phe-C ({TAMRA}-FDFDFDFDF) [Peptide 2DOS-10]
Reply text: 654,623

* * *

Can you tell me Retained fluorescence for the items I'm about to list?
# TEST_METHOD_NOTES: Retention of peptides in V-bottomed polypropylene wells
# Format: physicochemical
# EXPERIMENTAL_CONDITIONS: V-bottom wells; 500V scan; washed 15 minutes in 1 M NaCl in 10 mM tris-HCl (pH 8.0)
Ends that are not written are not given here.

Inquiry: Look up Retained fluorescence: N-TAMRA-Asp-Ser- Asp-Ser-Asp-Ser- Asp-C ({TAMRA}-DSDSDSD) [Peptide 2DOS-15]
Reply text: 122,851

Inquiry: Now this one: N-TAMRA-Phe-Asp- Phe-Ala-Phe-Ser- Phe-Lys-Phe-C ({TAMRA}-FDFAFSFKF) [Peptide 2DOS-2]
Reply text: 8,127,309

Inquiry: Now this one: N-TAMRA-Ser-Asp- Ser-Ala-Ser-Ser- Ser-Lys-Ser-C ({TAMRA}-SDSASSSKS) [Peptide 2DOS-3]
Reply text: 1,951,694

Inquiry: Now this one: N-TAMPA-Asp-Asp- Asp-Ala-Asp-Ser- Asp-Lys-Asp-C ({TAMRA}-DDDADSDKD) [Peptide 2DOS-4]
Reply text: 159,080

Inquiry: Now this one: N-TAMRA-Asp-Ser- Ala-Ser-Ser-Ser- Lys-C ({TAMRA}-DSASSSK) [Peptide 2DOS-7]
Reply text: 746,596

Inquiry: Now this one: N-TAMRA-Ser-Asp- Ser-Asp-Ser-Asp- Ser-Asp-Ser-C ({TAMRA}-SDSDSDSDS) [Peptide 2DOS-11]
Reply text: 192,272

Inquiry: Now this one: N-TAMRA-Phe-Asp- Phe-Asp-Phe-Asp- Phe-Asp-Phe-C ({TAMRA}-FDFDFDFDF) [Peptide 2DOS-10]
Reply text: 2,773,876

Inquiry: Now this one: N-TAMPA-Asp-Asp- Asp-Asp-Asp-Asp- Asp-C ({TAMRA}-DDDDDDD) [Peptide 2DOS-16]
Reply text: 44,420

Inquiry: Now this one: N-TAMPA-Asp-Asp- Asp-Asp-Asp-Asp- Asp-Asp-Asp-C ({TAMRA}-DDDDDDDDD) [Peptide 2DOS-12]
Reply text: 52,365
